The measurements presented in this section are drawn from PubChem BioAssay (NCI).

- Tested on: A498 renal
Respond using exactly one of the listed classes: active, inactive

Hi team, can someone confirm the assay call for CCOC(=O)c1ccc2c(c1)nc(-c1ccc(Cl)cc1)n2-c1cc(C(C)(C)C)[nH]n1 ?
inactive

====

- Test system: RXF 393 renal
- Experiment notes: NCI tumour cell line growth inhibition, 48 h
// reported TGI per item
All answers are understood in µM, so give the number only.

{"Chemical smiles": "O=C(CI)OCC(COC(=O)CI)OC(=O)CI", "Output unit": "µM", "TGI": 7.55}

Notebook: pull reported TGI for RXF 393 renal, entry Cn1c(-c2ccccc2)c2cc3nc4ccccc4nc3cc2c1-c1ccccc1
54.4

# query: TGI | item [N-]=[N+]=NC1=C(C(=O)c2ccccc2)C(=O)c2cccc3cccc1c23 | system: RXF 393 renal
71
